Data credit: PubChem BioAssay AID2060496

tested on: 276233-004-R-J1-PDC complex spheroid viability; assay: Anticancer human tumor 276233-004-R-J1-PDC patient-derived colon adenocarcinoma cell line growth inhibition [GQUAD]; conditions: second compound 0.316 µM; first compound 10 µM; stronger effect = lower value
I'd appreciate it if you could supply viability, T/C values for the items below.
Quick note: give the figure in %, leave out the unit.

[ask] What does the record list as viability, T/C for Nc1ccn(C2OC(CO)C(O)C2(F)F)c(=O)n1 (stereo not given) + CN(C)c1ccc(Nc2c3ccc(NC(=O)CCN4CCCC4)cc3nc3cc(NC(=O)CCN4CCCC4)ccc23)cc1 ?
[reply] 66.9

[ask] // next record CC(C)n1c(=O)n(C)c2cnc3cc(F)c(-c4ccc(OCCCN5CCCCC5)nc4)cc3c21 + Cc1[nH]c2ccc(F)cc2c1-c1nc2c3cccnc3c3ncccc3c2[nH]1
[reply] 87.8

[ask] // same read-out, input: CC(=O)O[C@H]1C(=O)[C@@]2(C)[C@H]([C@H](OC(=O)c3ccccc3)[C@]3(O)C[C@H](OC(=O)[C@H](O)[C@@H](NC(=O)c4ccccc4)c4ccccc4)C(C)=C1C3(C)C)[C@]1(OC(C)=O)CO[C@@H]1C[C@@H]2O + Cc1[nH]c2ccc(F)cc2c1-c1nc2c3cccnc3c3ncccc3c2[nH]1
[reply] 47.8

[ask] Item: COc1ccc([C@@H](O)c2cc(-c3ncnc4cc(N5CCOCC5)ccc34)c(F)cc2Cl)nn1 + Cc1[nH]c2ccc(F)cc2c1-c1nc2c3cccnc3c3ncccc3c2[nH]1
[reply] 61.2

[ask] Same lookup for CC1COCCN1c1cc(-c2ccnn2C)c2ccnc(-c3ccn[nH]3)c2n1 (stereo not given) + CN(C)c1ccc(Nc2c3ccc(NC(=O)CCN4CCCC4)cc3nc3cc(NC(=O)CCN4CCCC4)ccc23)cc1 , please.
[reply] 40.3

====

tested on: 276233-004-R-J1-PDC complex spheroid viability; assay: Anticancer human tumor 276233-004-R-J1-PDC cell line growth inhibition [GQUAD]; conditions: second compound 0.316 µM; first compound 10 µM; active = viability on the fitted dose curve at most 10% of control; inactive = the rest;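 further: spheroids exposed to drugs for seven days; 100% = DMSO vehicle control viability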
Would you mind answering with one of these outcomes? YES = active, NO = inactive

[ask] Hey, what did the test say about Nc1ccn(C2OC(CO)C(O)C2(F)F)c(=O)n1 (stereo not given) + Cc1cnc(CNC(=O)c2c(=O)c3ccc(N4CCCN(C)CC4)nc3n3c2sc2ccccc23)cn1 ?
[reply] NO

[ask] And for CC(C)(O)C1CCC(Nc2ccc3ncc(-c4cccc(C(F)(F)F)c4)n3n2)CC1 (stereo not given) + Cc1cnc(CNC(=O)c2c(=O)c3ccc(N4CCCN(C)CC4)nc3n3c2sc2ccccc23)cn1 ?
[reply] NO

[ask] Same read-out for CCCS(=O)(=O)Nc1ccc(F)c(C(=O)c2c[nH]c3ncc(-c4ccc(Cl)cc4)cc23)c1F + Cc1cnc(CNC(=O)c2c(=O)c3ccc(N4CCCN(C)CC4)nc3n3c2sc2ccccc23)cn1 ?
[reply] NO

[ask] Again, but for Nc1ccn(C2OC(CO)C(O)C2(F)F)c(=O)n1 (stereo not given) + Cc1[nH]c2ccc(F)cc2c1-c1nc2c3cccnc3c3ncccc3c2[nH]1
[reply] NO

[ask] Next up: C=CCn1c(=O)c2cnc(Nc3ccc(N4CCN(C)CC4)cc3)nc2n1-c1cccc(C(C)(C)O)n1 + CN(C)c1ccc(Nc2c3ccc(NC(=O)CCN4CCCC4)cc3nc3cc(NC(=O)CCN4CCCC4)ccc23)cc1
[reply] NO

[ask] What about COc1cccc2c1C(=O)c1c(O)c3c(c(O)c1C2=O)CC(O)(C(=O)CO)CC3OC1CC(N)C(O)C(C)O1 (stereo not given) + CN(C)c1ccc(Nc2c3ccc(NC(=O)CCN4CCCC4)cc3nc3cc(NC(=O)CCN4CCCC4)ccc23)cc1 ?
[reply] NO

[ask] Please do the same for O=C(NO)c1cnc(N2CCN(S(=O)(=O)c3ccc4ccccc4c3)CC2)nc1 + CN(C)c1ccc(Nc2c3ccc(NC(=O)CCN4CCCC4)cc3nc3cc(NC(=O)CCN4CCCC4)ccc23)cc1 as well.
[reply] YES

[ask] Follow-up entry: CC(=O)O[C@H]1C(=O)[C@@]2(C)[C@H]([C@H](OC(=O)c3ccccc3)[C@]3(O)C[C@H](OC(=O)[C@H](O)[C@@H](NC(=O)c4ccccc4)c4ccccc4)C(C)=C1C3(C)C)[C@]1(OC(C)=O)CO[C@@H]1C[C@@H]2O + Cc1cnc(CNC(=O)c2c(=O)c3ccc(N4CCCN(C)CC4)nc3n3c2sc2ccccc23)cn1
[reply] NO

[ask] Next up: COc1ncnc(C2CC2)c1-c1ncc2cnn(Cc3ccc(-c4nc(C(F)(F)F)cn4C(C)C)cc3)c2n1 + Cc1cnc(CNC(=O)c2c(=O)c3ccc(N4CCCN(C)CC4)nc3n3c2sc2ccccc23)cn1
[reply] NO

[ask] Now give it for O=c1[nH]cc(F)c(=O)[nH]1 + CN(C)c1ccc(Nc2c3ccc(NC(=O)CCN4CCCC4)cc3nc3cc(NC(=O)CCN4CCCC4)ccc23)cc1 too.
[reply] NO

[ask] Same lookup for C=CC(=O)N1CCN(c2nc(=O)n(-c3c(C)ccnc3C(C)C)c3nc(-c4c(O)cccc4F)c(F)cc23)C(C)C1 (stereo not given) + Cc1[nH]c2ccc(F)cc2c1-c1nc2c3cccnc3c3ncccc3c2[nH]1 , please.
[reply] NO

[ask] Next up: C=CCn1c(=O)c2cnc(Nc3ccc(N4CCN(C)CC4)cc3)nc2n1-c1cccc(C(C)(C)O)n1 + Cc1cnc(CNC(=O)c2c(=O)c3ccc(N4CCCN(C)CC4)nc3n3c2sc2ccccc23)cn1
[reply] NO

[ask] // same read-out, input: Cc1cccc(N(C)C(=O)C2C(O)CCN2c2nc(C)cc(C(F)(F)F)c2C#N)c1 (stereo not given) + CN(C)c1ccc(Nc2c3ccc(NC(=O)CCN4CCCC4)cc3nc3cc(NC(=O)CCN4CCCC4)ccc23)cc1
[reply] NO

[ask] And the next one, CC(C)(O)C1CCC(Nc2ccc3ncc(-c4cccc(C(F)(F)F)c4)n3n2)CC1 (stereo not given) + CN(C)c1ccc(Nc2c3ccc(NC(=O)CCN4CCCC4)cc3nc3cc(NC(=O)CCN4CCCC4)ccc23)cc1 ?
[reply] NO

[ask] Would you mind doing Cc1cccc(N(C)C(=O)C2C(O)CCN2c2nc(C)cc(C(F)(F)F)c2C#N)c1 (stereo not given) + Cc1[nH]c2ccc(F)cc2c1-c1nc2c3cccnc3c3ncccc3c2[nH]1 as well?
[reply] NO

[ask] Next: CC(C)(O)C1CCC(Nc2ccc3ncc(-c4cccc(C(F)(F)F)c4)n3n2)CC1 (stereo not given) + Cc1[nH]c2ccc(F)cc2c1-c1nc2c3cccnc3c3ncccc3c2[nH]1
[reply] NO

[ask] And for C=CC(=O)N1CCN(c2nc(=O)n(-c3c(C)ccnc3C(C)C)c3nc(-c4c(O)cccc4F)c(F)cc23)C(C)C1 (stereo not given) + Cc1cnc(CNC(=O)c2c(=O)c3ccc(N4CCCN(C)CC4)nc3n3c2sc2ccccc23)cn1 ?
[reply] NO

[ask] Can you handle CC(C)n1c(=O)n(C)c2cnc3cc(F)c(-c4ccc(OCCCN5CCCCC5)nc4)cc3c21 + CN(C)c1ccc(Nc2c3ccc(NC(=O)CCN4CCCC4)cc3nc3cc(NC(=O)CCN4CCCC4)ccc23)cc1 next?
[reply] NO

[ask] Would you kindly repeat that for C=CC(=O)N1CCN(c2nc(=O)n(-c3c(C)ccnc3C(C)C)c3nc(-c4c(O)cccc4F)c(F)cc23)C(C)C1 (stereo not given) + CN(C)c1ccc(Nc2c3ccc(NC(=O)CCN4CCCC4)cc3nc3cc(NC(=O)CCN4CCCC4)ccc23)cc1 ?
[reply] NO

[ask] Next molecule up: COc1ncnc(C2CC2)c1-c1ncc2cnn(Cc3ccc(-c4nc(C(F)(F)F)cn4C(C)C)cc3)c2n1 + Cc1[nH]c2ccc(F)cc2c1-c1nc2c3cccnc3c3ncccc3c2[nH]1
[reply] NO

====

test system: 276233-004-R-J1-PDC complex spheroid viability; assay: Anticancer human tumor 276233-004-R-J1-PDC cell line growth inhibition [GQUAD]; details: second compound 0.0316 µM; first compound 0.0316 µM; stronger effect = lower value;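 further: spheroids exposed to drugs for seven days; 100% = DMSO vehicle control viability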
observation type: viability, T/C (%)
Express it in %; write the number only.

[ask] Looking for the measured viability, T/C of C=CCn1c(=O)c2cnc(Nc3ccc(N4CCN(C)CC4)cc3)nc2n1-c1cccc(C(C)(C)O)n1 + Cc1[nH]c2ccc(F)cc2c1-c1nc2c3cccnc3c3ncccc3c2[nH]1 , can you help?
[reply] 98.8

[ask] Try CCc1c2c(nc3ccc(O)cc13)-c1cc3c(c(=O)n1C2)COC(=O)[C@]3(O)CC + CN(C)c1ccc(Nc2c3ccc(NC(=O)CCN4CCCC4)cc3nc3cc(NC(=O)CCN4CCCC4)ccc23)cc1 next.
[reply] 105

[ask] Again, but for CCCS(=O)(=O)Nc1ccc(F)c(C(=O)c2c[nH]c3ncc(-c4ccc(Cl)cc4)cc23)c1F + Cc1[nH]c2ccc(F)cc2c1-c1nc2c3cccnc3c3ncccc3c2[nH]1
[reply] 99.6

[ask] Let us now turn to CC1COCCN1c1cc(-c2ccnn2C)c2ccnc(-c3ccn[nH]3)c2n1 (configuration not stated) + Cc1[nH]c2ccc(F)cc2c1-c1nc2c3cccnc3c3ncccc3c2[nH]1
[reply] 84.6

[ask] Now give it for COc1cc(C2c3cc4c(cc3C(OC3OC5COC(C)OC5C(O)C3O)C3COC(=O)C23)OCO4)cc(OC)c1O (configuration not stated) + Cc1cnc(CNC(=O)c2c(=O)c3ccc(N4CCCN(C)CC4)nc3n3c2sc2ccccc23)cn1 too.
[reply] 83.2

[ask] Lookup O=C(NO)c1cnc(N2CCN(S(=O)(=O)c3ccc4ccccc4c3)CC2)nc1 + Cc1cnc(CNC(=O)c2c(=O)c3ccc(N4CCCN(C)CC4)nc3n3c2sc2ccccc23)cn1
[reply] 102

[ask] Okay, and Cc1[nH]c2ccccc2c1CCNCc1ccc(/C=C/C(=O)NO)cc1 + CN(C)c1ccc(Nc2c3ccc(NC(=O)CCN4CCCC4)cc3nc3cc(NC(=O)CCN4CCCC4)ccc23)cc1 ?
[reply] 84

[ask] Same for C=CCn1c(=O)c2cnc(Nc3ccc(N4CCN(C)CC4)cc3)nc2n1-c1cccc(C(C)(C)O)n1 + CN(C)c1ccc(Nc2c3ccc(NC(=O)CCN4CCCC4)cc3nc3cc(NC(=O)CCN4CCCC4)ccc23)cc1
[reply] 87.6

[ask] Cool, now CCc1c2c(nc3ccc(O)cc13)-c1cc3c(c(=O)n1C2)COC(=O)[C@]3(O)CC + Cc1[nH]c2ccc(F)cc2c1-c1nc2c3cccnc3c3ncccc3c2[nH]1
[reply] 103

[ask] Next entry: C#Cc1c(F)ccc2cc(O)cc(-c3ncc4c(N5CC6CCC(C5)N6)nc(OCC56CCCN5CC(F)C6)nc4c3F)c12 (configuration not stated) + Cc1[nH]c2ccc(F)cc2c1-c1nc2c3cccnc3c3ncccc3c2[nH]1
[reply] 89

[ask] Field entry: COc1cccc2c1C(=O)c1c(O)c3c(c(O)c1C2=O)CC(O)(C(=O)CO)CC3OC1CC(N)C(O)C(C)O1 (configuration not stated) + Cc1[nH]c2ccc(F)cc2c1-c1nc2c3cccnc3c3ncccc3c2[nH]1
[reply] 79.4

[ask] Try this molecule next: CCc1c2c(nc3ccc(O)cc13)-c1cc3c(c(=O)n1C2)COC(=O)[C@]3(O)CC + Cc1cnc(CNC(=O)c2c(=O)c3ccc(N4CCCN(C)CC4)nc3n3c2sc2ccccc23)cn1
[reply] 90

[ask] Could you do the same for COc1ccc([C@@H](O)c2cc(-c3ncnc4cc(N5CCOCC5)ccc34)c(F)cc2Cl)nn1 + Cc1cnc(CNC(=O)c2c(=O)c3ccc(N4CCCN(C)CC4)nc3n3c2sc2ccccc23)cn1 , please?
[reply] 75.2

[ask] What do you get for COc1ncnc(C2CC2)c1-c1ncc2cnn(Cc3ccc(-c4nc(C(F)(F)F)cn4C(C)C)cc3)c2n1 + CN(C)c1ccc(Nc2c3ccc(NC(=O)CCN4CCCC4)cc3nc3cc(NC(=O)CCN4CCCC4)ccc23)cc1 ?
[reply] 87.4

[ask] Same question, COc1ccc([C@@H](O)c2cc(-c3ncnc4cc(N5CCOCC5)ccc34)c(F)cc2Cl)nn1 + Cc1[nH]c2ccc(F)cc2c1-c1nc2c3cccnc3c3ncccc3c2[nH]1 this time
[reply] 89.6

[ask] Another molecule to check: CC[C@@]1(O)C(=O)OCc2c1cc1n(c2=O)Cc2cc3c(CN(C)C)c(O)ccc3nc2-1 + Cc1cnc(CNC(=O)c2c(=O)c3ccc(N4CCCN(C)CC4)nc3n3c2sc2ccccc23)cn1
[reply] 80

[ask] Similarly, Cc1[nH]c2ccccc2c1CCNCc1ccc(/C=C/C(=O)NO)cc1 + Cc1[nH]c2ccc(F)cc2c1-c1nc2c3cccnc3c3ncccc3c2[nH]1 ?
[reply] 96

[ask] What do we get for CC1COCCN1c1cc(C2(O)CC3CCC(C2)O3)c2cnn(-c3ccn[nH]3)c2n1 (configuration not stated) + CN(C)c1ccc(Nc2c3ccc(NC(=O)CCN4CCCC4)cc3nc3cc(NC(=O)CCN4CCCC4)ccc23)cc1 ?
[reply] 74.7

[ask] O=c1[nH]cc(F)c(=O)[nH]1 + Cc1cnc(CNC(=O)c2c(=O)c3ccc(N4CCCN(C)CC4)nc3n3c2sc2ccccc23)cn1 ?
[reply] 86.8

[ask] And the next one, CCCS(=O)(=O)Nc1ccc(F)c(C(=O)c2c[nH]c3ncc(-c4ccc(Cl)cc4)cc23)c1F + CN(C)c1ccc(Nc2c3ccc(NC(=O)CCN4CCCC4)cc3nc3cc(NC(=O)CCN4CCCC4)ccc23)cc1 ?
[reply] 81.6

[ask] Can you check O=c1[nH]cc(F)c(=O)[nH]1 + Cc1[nH]c2ccc(F)cc2c1-c1nc2c3cccnc3c3ncccc3c2[nH]1 next?
[reply] 71.4

[ask] And what about the molecule Nc1ccn(C2OC(CO)C(O)C2(F)F)c(=O)n1 (configuration not stated) + Cc1[nH]c2ccc(F)cc2c1-c1nc2c3cccnc3c3ncccc3c2[nH]1 ?
[reply] 102
